biological target: human BCRP (Homo sapiens, UniProt Q9UNQ0); assay: Inhibition of LY uptake into BCRP vesicles by oleic acid (VT assay)
Sequence (Q9UNQ0 whole entry): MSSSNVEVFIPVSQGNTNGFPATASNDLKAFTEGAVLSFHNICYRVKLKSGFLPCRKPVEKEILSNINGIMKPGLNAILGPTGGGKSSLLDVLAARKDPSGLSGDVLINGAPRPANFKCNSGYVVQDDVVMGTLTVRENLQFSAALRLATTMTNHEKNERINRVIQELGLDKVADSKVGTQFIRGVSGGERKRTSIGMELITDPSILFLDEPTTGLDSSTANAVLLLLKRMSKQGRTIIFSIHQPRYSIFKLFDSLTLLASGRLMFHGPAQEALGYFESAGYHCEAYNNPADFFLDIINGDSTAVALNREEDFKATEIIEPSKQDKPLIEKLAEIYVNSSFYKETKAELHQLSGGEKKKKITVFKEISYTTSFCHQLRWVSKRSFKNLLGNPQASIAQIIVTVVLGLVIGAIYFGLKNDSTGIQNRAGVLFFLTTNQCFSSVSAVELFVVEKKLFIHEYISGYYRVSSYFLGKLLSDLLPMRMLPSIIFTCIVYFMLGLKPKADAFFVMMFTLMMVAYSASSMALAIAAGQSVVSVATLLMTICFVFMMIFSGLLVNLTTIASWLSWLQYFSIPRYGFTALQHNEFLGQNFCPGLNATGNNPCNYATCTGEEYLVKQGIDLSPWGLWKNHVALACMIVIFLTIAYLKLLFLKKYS
metric_name: IC50 (µM)

CCCCCCCC/C=C\CCCCCCCC(=O)O [oleic acid] :: 28.2
